Origin of the recorded values: patent US11931424B2

- Tested on: panel of breast cancer cell lines
- assay.notes: Compound A with targeted agents and chemotherapies, 72-hour in vitro proliferation assays
- Type: cell-based
- condition.details: HCC1806; compound A × partner, 72-hour proliferation
Where a name gives a salt, the structure may show the parent alone.
metric.name: Best CI
Give bare numbers.

The following compounds have reported results that may help.
// Best CI lookup, compound = Nc1ccn([C@@H]2O[C@H](CO)[C@@H](O)C2(F)F)c(=O)n1 [Gemcitabine Hydrochloride] , result: 0.13

// Best CI lookup, compound = `CC(C)NC[C@@H](C(=O)N1CCN(c2ncnc3c2[C@H](C)C[C@H]3O)CC1)c1ccc(Cl)cc1` , result: 0.83

// Best CI lookup, compound = CS(=O)(=O)CCNCc1ccc(-c2ccc3ncnc(Nc4ccc(OCc5cccc(F)c5)c(Cl)c4)c3c2)o1 [Lapatinib Ditosylate] , result: 0.74

// Best CI lookup, compound = `N.N.O=C([O-])C1(C(=O)[O-])CCC1.[Pt+2]` , result: 0.33

Continuing:
// Best CI lookup, compound = `Cn1ncnc1[C@H]1c2n[nH]c(=O)c3cc(F)cc(c23)N[C@@H]1c1ccc(F)cc1` , result: 0.15
